The measured values listed here are drawn from patent US8778919B2.

Each item that follows carries a reported C3.5 score.
- TEST SYSTEM: CDK3/cyclinE (h) (Homo sapiens)
- TEST SUMMARY: Kinase profiling C3.5 CDK3/cyclinE human
- Assay type: biochemical
- CONDITION DETAILS: test concentration of 10^−6 M

Study these solved cases before continuing.
CN1CCC(=O)NCCNc2cc(ccn2)-c2ncnc(n2)Nc2cccc(c2)C1 [Compound 20]: 4 (Score 4 = >80% inhibition)
O=C1CN2CCN(CC2)Cc2cccc(c2)Nc2ncnc(n2)-c2cccc(c2)CCCN1: 2 (Score 2 = 30-60% inhibition)
CN1CCN(CCN2CCC(=O)NCCCc3cc(ccn3)-c3ncnc(n3)Nc3cccc(c3)C2)CC1: 1 (Score 1 = 10-30% inhibition)

// moving on: another record for C3.5 score
For record `O=C1NCCCNc2cc(ccn2)-c2ncnc(n2)Nc2cccc(c2)CN2CCC[C@@H]12` the listed C3.5 score is 4 (Score 4 = >80% inhibition)

---

Listed here are compounds together with their documented C3.5 score.
- TEST SYSTEM: CDK3/cyclinE (h) (Homo sapiens)
- TEST SUMMARY: Kinase profiling C3.5 CDK3/cyclinE human
- Format: biochemical
- CONDITION DETAILS: test concentration of 10^−6 M

Before answering, review these 6 worked examples.
CN1CCCC(=O)NCCCc2cc(ccn2)-c2ncnc(n2)Nc2cccc(c2)C1 [Compound 13]: 2 (Score 2 = 30-60% inhibition)
O=C1CN2CCN(CC2)Cc2cccc(c2)Nc2ncnc(n2)-c2cccc(c2)NCCN1 [Compound 58]: 1 (Score 1 = 10-30% inhibition)
CN1CCC(=O)NCCCc2cc(ccn2)-c2ncnc(n2)Nc2cccc(c2)C1 [Compound 3]: 3 (Score 3 = 60-80% inhibition)
O=C1NCCc2cccc(c2)Nc2ncnc(n2)-c2ccnc(c2)CCCN2CCCC1C2 (centres unmarked) [Compound 26]: 3 (Score 3 = 60-80% inhibition)
O=C1CCN2CCN(CC2)Cc2cccc(c2)Nc2ncnc(n2)-c2ccnc(c2)NCCN1 [Compound 19]: 4 (Score 4 = >80% inhibition)
O=C1NCCCc2cc(ccn2)-c2ncnc(n2)Nc2cc(Cl)cc(c2)CN2CCC[C@@H]12 [Compound 38]: 3 (Score 3 = 60-80% inhibition)

The measured C3.5 score associated with CN1CC(=O)NCCCc2cc(ccn2)-c2ncnc(n2)Nc2cccc(c2)C1 [Compound 8] reads 4 (Score 4 = >80% inhibition)

GET /value?item= O=C1NCCCc2cc(ccn2)-c2ncnc(n2)Nc2cc(Cl)cc(c2)CN2CCCC1C2 (centres unmarked) [Compound 39] &field=C3.5 score returns 2 (Score 2 = 30-60% inhibition)

---

Measured C3.8 score by item
- TEST SYSTEM: CDK7/cyclinH/MAT1 (h) (Homo sapiens, UniProt P50613)
- Sequence (P50613 whole entry): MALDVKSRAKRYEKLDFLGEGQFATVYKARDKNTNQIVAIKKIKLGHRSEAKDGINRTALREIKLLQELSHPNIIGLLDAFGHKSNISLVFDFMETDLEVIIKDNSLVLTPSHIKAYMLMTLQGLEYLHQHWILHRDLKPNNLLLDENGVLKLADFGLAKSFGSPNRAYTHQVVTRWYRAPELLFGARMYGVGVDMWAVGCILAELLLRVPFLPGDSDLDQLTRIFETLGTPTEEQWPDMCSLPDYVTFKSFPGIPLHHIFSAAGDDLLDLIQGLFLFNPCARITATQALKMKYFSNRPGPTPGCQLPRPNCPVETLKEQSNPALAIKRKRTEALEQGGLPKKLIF
- Sequence (P51946 whole entry partner): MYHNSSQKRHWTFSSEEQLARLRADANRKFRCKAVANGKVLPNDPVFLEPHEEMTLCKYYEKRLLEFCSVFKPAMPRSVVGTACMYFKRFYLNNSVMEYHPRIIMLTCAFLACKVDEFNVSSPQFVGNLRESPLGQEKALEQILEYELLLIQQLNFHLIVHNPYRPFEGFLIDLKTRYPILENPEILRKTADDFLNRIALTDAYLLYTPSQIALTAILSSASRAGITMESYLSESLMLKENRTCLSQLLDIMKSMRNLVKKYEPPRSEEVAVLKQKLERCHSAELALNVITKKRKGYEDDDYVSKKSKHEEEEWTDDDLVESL
- Sequence (P51948 whole entry partner): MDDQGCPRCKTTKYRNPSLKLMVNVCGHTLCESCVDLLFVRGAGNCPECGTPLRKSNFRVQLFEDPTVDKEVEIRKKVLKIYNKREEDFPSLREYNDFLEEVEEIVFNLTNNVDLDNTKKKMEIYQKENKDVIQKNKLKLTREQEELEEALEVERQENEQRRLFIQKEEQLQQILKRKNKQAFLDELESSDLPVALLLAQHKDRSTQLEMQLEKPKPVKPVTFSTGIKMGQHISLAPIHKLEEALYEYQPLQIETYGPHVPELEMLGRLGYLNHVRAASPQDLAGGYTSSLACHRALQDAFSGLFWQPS
- TEST SUMMARY: Kinase profiling C3.8 CDK7/cyclinH/MAT1 human
- Format: biochemical
- CONDITION DETAILS: CDK7/cyclinH/MAT1, test concentration of 10^−6 M
- Experimental: The in vitro inhibition of a panel of kinases was assessed using either the glass-fiber filter technology as described by Davies, S. P. et al., Biochem J. (2000), 351; p. 95-105. In the glass-fiber filter technology the activity of the kinase of interest is measured using an appropriate substrate that is incubated with the aforementioned kinase protein in the presence of (^33P) radiolabeled ATP. […]

O=C1CN2CCN(CC2)Cc2cccc(c2)Nc2ncnc(n2)-c2cncc(c2)CCCN1 [Compound 84]: 1 (Score 1 = 10-30% inhibition)

What the record says about CN1CCCC(=O)NCCCc2cc(ccn2)-c2ncnc(n2)Nc2cccc(c2)C1 [Compound 13] : C3.8 score is 2 (Score 2 = 30-60% inhibition)

Looking up CN1CCC(=O)NCCNc2cc(ccn2)-c2ncnc(n2)Nc2cccc(c2)C1 [Compound 20] , I see its C3.8 score listed as 2 (Score 2 = 30-60% inhibition)

Entry CN1CCN(CCN2CCC(=O)NCCCc3cc(ccn3)-c3ncnc(n3)Nc3cccc(c3)C2)CC1 [Compound 11] — recorded C3.8 score = 1 (Score 1 = 10-30% inhibition)

---

- TEST SYSTEM: CDK3/cyclinE (h) (Homo sapiens, UniProt Q00526)
- Sequence (Q00526 whole entry): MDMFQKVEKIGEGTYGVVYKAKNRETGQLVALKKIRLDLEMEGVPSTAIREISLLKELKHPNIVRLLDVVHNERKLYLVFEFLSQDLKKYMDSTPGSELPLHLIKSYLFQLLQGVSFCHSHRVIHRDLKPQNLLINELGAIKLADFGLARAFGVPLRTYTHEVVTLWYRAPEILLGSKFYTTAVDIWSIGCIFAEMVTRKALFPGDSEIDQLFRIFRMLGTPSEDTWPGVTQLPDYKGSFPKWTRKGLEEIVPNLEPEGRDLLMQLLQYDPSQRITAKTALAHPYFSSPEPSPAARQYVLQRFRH
- Sequence (P24864 whole entry partner): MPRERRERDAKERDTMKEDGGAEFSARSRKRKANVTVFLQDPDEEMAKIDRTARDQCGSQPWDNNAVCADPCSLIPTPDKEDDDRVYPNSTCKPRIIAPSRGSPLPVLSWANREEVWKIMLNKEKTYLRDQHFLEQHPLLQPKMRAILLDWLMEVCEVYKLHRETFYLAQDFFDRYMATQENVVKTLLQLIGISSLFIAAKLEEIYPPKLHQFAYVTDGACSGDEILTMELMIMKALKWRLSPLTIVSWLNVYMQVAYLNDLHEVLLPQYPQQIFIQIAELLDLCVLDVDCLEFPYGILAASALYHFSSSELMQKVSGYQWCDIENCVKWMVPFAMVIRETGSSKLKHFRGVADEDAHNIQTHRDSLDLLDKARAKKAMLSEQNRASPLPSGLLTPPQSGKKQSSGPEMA
- TEST SUMMARY: Kinase profiling C3.5 CDK3/cyclinE human
- Type: biochemical
- CONDITION DETAILS: test concentration of 10^−6 M
TEST READOUT: C3.5 score

Below are worked cases with known answers.
O=C1CC2CCN(CCCc3cc(ccn3)-c3ncnc(n3)Nc3cccc(c3)CCN1)CC2: 1 (Score 1 = 10-30% inhibition)
O=C1NCCCc2cc(ccn2)-c2ncnc(n2)Nc2cccc(c2)CN2C[C@H](O)C[C@@H]12: 2 (Score 2 = 30-60% inhibition)
O=C1NCCCc2cc(ccn2)-c2ncnc(n2)Nc2cccc(c2)CN2CCCC12 (centres unmarked): 3 (Score 3 = 60-80% inhibition)
CN1Cc2cccc(c2)Nc2ncnc(n2)-c2ccnc(c2)NCCCNC(=O)CCN2CCC1CC2: 3 (Score 3 = 60-80% inhibition)
CN1CC(=O)NC/C(Cl)=C/c2cc(ccn2)-c2ncnc(n2)Nc2cccc(c2)C1: 4 (Score 4 = >80% inhibition)

The recorded C3.5 score for `O=C1CN2CCN(CC2)Cc2cc(Cl)cc(c2)Nc2ncnc(n2)-c2ccnc(c2)CCCN1` is 3 (Score 3 = 60-80% inhibition)

Kindly note the recorded C3.5 score for `O=C1CCN2CCN(CC2)Cc2cccc(c2)Nc2ncnc(n2)-c2ccnc(c2)NCCCN1` , which is 4 (Score 4 = >80% inhibition)

What the record says about `CN1CCCc2cc(ccn2)-c2ncnc(n2)Nc2cccc(c2)CNC(=O)C1` : C3.5 score is 4 (Score 4 = >80% inhibition)

---

The following are reported IC50 results, target or system GSK-3β (Homo sapiens).

Example cases with answers are listed next.
O=C1NCCCNc2cc(ccn2)-c2ncnc(n2)Nc2cccc(c2)CN2CCC[C@@H]12: 100 to 1000 nM
CCN1CC(=O)NCCCc2cc(ccn2)-c2ncnc(n2)Nc2cc(Cl)cc(c2)C1: < 10 nM
O=C1NCCCc2cc(ccn2)-c2ncnc(n2)Nc2cccc(c2)CN2CCCC12 (stereo not drawn): 100 to 1000 nM
O=C1NCCCc2cc(ccn2)-c2ncnc(n2)Nc2cc(Cl)cc(c2)CN2CCC[C@@H]12: 100 to 1000 nM
O=C1NCCCc2cc(ccn2)-c2ncnc(n2)Nc2cccc(c2)CN2CCCC1C2 (stereo not drawn): 10 to 100 nM

// recorded IC50 for `O=C1CC2CCN(CCCc3cc(ccn3)-c3ncnc(n3)Nc3cccc(c3)CCN1)CC2` : 100 to 1000 nM

The recorded IC50 for `O=C1CCN2CCN(CCCc3cc(ccn3)-c3ncnc(n3)Nc3cccc(c3)CCN1)CC2` is 10 to 100 nM

The reported IC50 of the compound `O=C1NCCCc2cc(ccn2)-c2ncnc(n2)Nc2cccc(c2)CN2CCC1CC2` was 10 to 100 nM

Given item `CN1CC(=O)NCCCc2cc(ccn2)-c2ncnc(n2)Nc2cc(Cl)cc(c2)C1` , the value recorded as its IC50 is < 10 nM

Given item `CN1CCC(=O)NCCCc2cc(ccn2)-c2ncnc(n2)Nc2cccc(c2)C1` , the value recorded as its IC50 is 10 to 100 nM

// sample `CN1CC(=O)NCCCc2cc(ccn2)-c2ncnc(n2)Nc2cc(Cl)ccc2C1` , its IC50 was > 1000 nM

The reported value for `CN1CC(=O)NCCNc2cccc(c2)-c2ncnc(n2)Nc2cccc(c2)C1` in terms of IC50 is 10 to 100 nM

Measured IC50 of `CN1CC(=O)NCCNc2cc(ccn2)-c2ncnc(n2)Nc2cccc(c2)C1` : 10 to 100 nM

// field: IC50; key: `CN1CCC(=O)NCCNc2cc(ccn2)-c2ncnc(n2)Nc2cccc(c2)C1` ; value = 10 to 100 nM

For reference, reported IC50 for `O=C1CCN2CCN(CC2)Cc2cc(Cl)cc(c2)Nc2ncnc(n2)-c2ccnc(c2)CCCN1` stands at 10 to 100 nM

---

- TEST SYSTEM: CDK5/p35 human (Homo sapiens, UniProt Q00535)
- Sequence (Q00535 whole entry): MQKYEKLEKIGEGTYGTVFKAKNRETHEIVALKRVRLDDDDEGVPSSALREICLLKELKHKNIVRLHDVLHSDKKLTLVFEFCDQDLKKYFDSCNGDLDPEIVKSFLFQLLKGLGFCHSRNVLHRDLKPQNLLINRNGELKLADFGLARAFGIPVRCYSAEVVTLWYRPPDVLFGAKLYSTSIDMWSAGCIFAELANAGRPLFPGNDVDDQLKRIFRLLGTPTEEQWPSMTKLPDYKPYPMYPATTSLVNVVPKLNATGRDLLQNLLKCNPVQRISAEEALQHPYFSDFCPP
- Sequence (Q15078 whole entry partner): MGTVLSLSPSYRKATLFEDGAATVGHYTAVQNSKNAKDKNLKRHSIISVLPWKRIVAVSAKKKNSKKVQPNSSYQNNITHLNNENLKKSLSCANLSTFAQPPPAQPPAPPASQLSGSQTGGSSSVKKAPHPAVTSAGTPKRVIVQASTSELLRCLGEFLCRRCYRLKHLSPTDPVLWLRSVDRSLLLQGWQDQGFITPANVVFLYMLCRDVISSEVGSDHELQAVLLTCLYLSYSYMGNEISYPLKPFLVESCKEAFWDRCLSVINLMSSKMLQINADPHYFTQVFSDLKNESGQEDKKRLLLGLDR
- TEST SUMMARY: Kinase profiling C3.6 CDK5/p35 human
- Type: biochemical
- CONDITION DETAILS: CDK5/p35, test concentration of 10^−6 M
- Method: The in vitro inhibition of a panel of kinases was assessed using either the glass-fiber filter technology as described by Davies, S. P. et al., Biochem J. (2000), 351; p. 95-105. In the glass-fiber filter technology the activity of the kinase of interest is measured using an appropriate substrate that is incubated with the aforementioned kinase protein in the presence of (^33P) radiolabeled ATP. […]
// reported C3.6 score for each item listed

Recorded C3.6 score, per entry:
CN1Cc2cccc(c2)Nc2ncnc(n2)-c2ccnc(c2)NCCCNC(=O)CCN2CCC1CC2: 2 (Score 2 = 30-60% inhibition)
O=C1NCCCc2cc(ccn2)-c2ncnc(n2)Nc2cccc(c2)CN2C[C@H](O)C[C@@H]12: 1 (Score 1 = 10-30% inhibition)
O=C1CCN2CCN(CC2)Cc2cc(Cl)cc(c2)Nc2ncnc(n2)-c2ccnc(c2)CCCN1: 4 (Score 4 = >80% inhibition)
O=C1CN2CCN(CC2)Cc2cccc(c2)Nc2ncnc(n2)-c2ccnc(c2)CCCN1 [Compound 9]: 2 (Score 2 = 30-60% inhibition)
CN1CC(=O)NCCCc2cc(ccn2)-c2ncnc(n2)Nc2cc(Cl)cc(c2)C1: 4 (Score 4 = >80% inhibition)

Record `O=C1CN2CCN(CC2)Cc2cccc(c2)Nc2ncnc(n2)-c2cccc(c2)NCCN1` . Reported C3.6 score: 2 (Score 2 = 30-60% inhibition)

Recorded result, `O=C1CCN2CCN(CC2)Cc2cccc(c2)Nc2ncnc(n2)-c2ccnc(c2)CCCN1` , C3.6 score: 4 (Score 4 = >80% inhibition)

Input O=C1NCCCc2cc(ccn2)-c2ncnc(n2)Nc2cc(Cl)cc(c2)CN2CCCC1C2 (stereo not drawn) . Output C3.6 score: 1 (Score 1 = 10-30% inhibition)
